ASSAY COMMENT: folding stability dG unfold from trypsin proteolysis; higher = more stable
# reported folding stability dG unfold; entries follow
EXPERIMENTAL ENDPOINT: folding stability dG unfold (kcal/mol)

> print(dat)
                           residue.sequence  reading
1  SAGGMRLRIVVKSEEEARELAEALAKKLKEEFPGLKIEVKVVKVEYNEETDLIVVEVEIKVELEDEEPSAGG [r13_585_TrROS_Hall]      4.6
2  SAKKYIIRVKVKINGKEYEIEIEADSLEEALAKLKEELKKLFPGEKIEEVKIEVYDAKTGEKKEITLKLSAG [r14_54_TrROS_Hall]     2.76
3  SAGGSAGGSAGPKVVLVPVKVVQKLLGVKIPENSRVLVLLEKDKVKAVLVFPVLPSPENPSAGGSAGGSAGG [r11_616_TrMRF]     1.26
4  SAGGSAMVTVTRYPDGTYVVEATGRGDSRTFTLDLPLEEIKEVLEKEGIKIDKIEVKPAPVDPAKVSAGGSA [r15_576_JUSTAS]     1.27

Cited source: the supplement of paper PMC12764529
